Answer each item with its documented log10(TGI).
- Tested on: UACC-257 melanoma
- testMethodNotes: NCI tumour cell line growth inhibition, 48 h
Would you kindly interpret these values as log10 of TGI expressed in µM?

Examples with answers:
[
  {
    "molecule": "O=c1cc(N2CCNCC2)oc2c(-c3ccccc3)cccc12",
    "measuredValue": 1.46
  },
  {
    "molecule": "CC(=O)OC(C)c1cc2c(s1)C(=O)c1scc(C(C)OC(C)=O)c1C2=O (stereo unspecified)",
    "measuredValue": -0.33
  },
  {
    "molecule": "CO/N=C(\\C)c1cccc(Nc2cc(-c3ccccc3)nc3c(O)cccc23)c1",
    "measuredValue": 1.35
  },
  {
    "molecule": "O=C1c2ccccc2C(=O)c2c(NCCNCCO)ccc(O)c21",
    "measuredValue": 1.13
  }
]

Record O=C(Nc1ccc(CN2CCOCC2)cc1)c1[nH]ncc1Nc1ncnc2sccc12 . Reported log10(TGI): 1.40

---

- System: NCI-H23 lung
- testMethodNotes: NCI tumour cell line growth inhibition, 48 h
testReadout: TGI (µM)
Numbers only, in µM.

[
  {
    "molecule": "N#C/C(=C\\c1ccc(O)c(O)c1)C(=O)NC1CCC(CC2CCC(NC(=O)/C(C#N)=C/c3ccc(O)c(O)c3)CC2)CC1 (stereo unspecified)",
    "TGI [µM]": 3.89
  }
]

Parameter requested: TGI. Apply to each item below.
1. Cc1cc2c(cc1C)[n+](=O)c(C#N)c(Cl)n2[O-]
2. O=C(c1cc2ccccc2o1)N(Cc1ccccc1)c1ccccc1

[25.1, 71.2]

---

- System: NCI-H23 lung
- testMethodNotes: NCI tumour cell line growth inhibition, 48 h
testReadout: GI50

Examples with answers:
[
  {
    "compound": "CCOC(=O)C1=C(C)NC2SC(=O)/C(=C\\c3ccccc3O)N2C1c1ccccc1 (centres undefined)",
    "experimentalSystem": "NCI-H23 lung",
    "GI50": "24.5 µM"
  },
  {
    "compound": "O=C1c2ccccc2C(=Cc2ccccc2)c2ccccc21",
    "experimentalSystem": "NCI-H23 lung",
    "GI50": "2.59 µM"
  },
  {
    "compound": "COC(=O)[C@]12CC[C@@H](C)[C@H](C)[C@@H]1C1=CC[C@@H]3[C@@]4(C)C(C=O)=C[C@@](C)(COC(=O)c5ccco5)[C@@H]4C(=O)C[C@@]3(C)[C@]1(C)CC2",
    "experimentalSystem": "NCI-H23 lung",
    "GI50": "4.33 µM"
  },
  {
    "compound": "O=C(Nc1ccc(Cl)cc1F)c1cc(I)ccc1O",
    "experimentalSystem": "NCI-H23 lung",
    "GI50": "1.78 µM"
  },
  {
    "compound": "O=C(Nc1cccc(Oc2nnc(Cl)c3ccccc23)c1)Nc1ccc(Cl)c(C(F)(F)F)c1",
    "experimentalSystem": "NCI-H23 lung",
    "GI50": "0.907 µM"
  },
  {
    "compound": "CC/C=C\\C/C=C\\C[C@H](O)C/C=C1/C(=O)C=C[C@@H]1C/C=C\\CCCC(=O)O",
    "experimentalSystem": "NCI-H23 lung",
    "GI50": "4.09 µM"
  }
]

Parameter requested: GI50. Apply to each item below.
1. CCOC(=O)/C=C/c1cc2cc(-c3csc4ccccc34)ccc2[nH]1
2. O=C(CSC(c1ccccc1)c1ccccc1)N/N=C/c1cccc(Cl)c1
3. Cn1c(O)c(C(/C=C/c2ccccc2)=NCCN=C(/C=C/c2ccccc2)c2c(O)n(C)c(=O)n(C)c2=O)c(=O)n(C)c1=O

1: 18.3 µM; 2: 14.9 µM; 3: 15 µM

---

- Tested on: NCI-H226 lung
- testMethodNotes: NCI tumour cell line growth inhibition, 48 h
Answer each item with its documented TGI.

Parameter requested: TGI. Apply to each item below.
1. CCCCCC(=O)Nc1nc[nH]c1C(N)=O
2. C[C@]12CCc3nonc3C1CC[C@@H]1C2CC[C@]2(C)NC(=O)CCC12 (stereo partly specified)
3. COCc1cc2c(cc1/C(=C/[N+](=O)[O-])CS(=O)(=O)c1ccccc1)OCO2
4. COC(=O)c1ccc(NC(=O)Nc2ccc3oc(=O)c4ccccc4c3c2)cc1
5. CC(=O)OC[C@@H]1[C@H]2CC[C@]3(C)[C@@H](OC(C)=O)CC[C@H]3[C@@H]2CC[C@H]1C1(C)SCCS1
6. Cc1ccc(C[P+]2(c3ccccc3)CCCCC2)cc1

1: > 100 µM; 2: > 100 µM; 3: > 100 µM; 4: > 100 µM; 5: > 25 µM; 6: > 100 µM

Parameter requested: TGI. Apply to each item below.
1. Cc1c(C(=O)C/C(=N/NC(=O)C[n+]2ccccc2)C(=O)Nc2ccccc2)[n+](=O)c2ccccc2n1O
2. COc1ccc(N=C2C(=Nc3ccc(OC)cc3)N(S(=O)(=O)c3ccccc3)C(=S)N2c2ccccc2)cc1
3. CC(C)(C)c1[nH]cnc1/C=c1\[nH]c(=O)/c(=C/c2ccccc2)[nH]c1=O
4. ClCCN1CCOC1=Nc1ccc2c(c1)CCCC2
5. CC1(C)CCc2cc3c(cc2O1)OCC1c2cc4c(cc2OC31)OCO4 (stereo unspecified)
6. COc1cccc2c1-c1c(c3ccc([N+](=O)[O-])cc3c(=O)n1CCCCl)C2=O
7. NCCCCN(CCCN)C(=O)c1ccccc1
8. COc1cc(C=C2N=C(c3ccccc3)N(n3c(-c4ccccc4)nc4ccccc4c3=O)C2=O)cc(OC)c1OC

1. > 100 µM
2. > 100 µM
3. 3.69 µM
4. 30.9 µM
5. > 100 µM
6. 41.5 µM
7. > 100 µM
8. 49.4 µM

Parameter requested: TGI. Apply to each item below.
1. O=C(O)c1ccc([N+]2=Cn3c(nc4ccccc43)C2)cc1
2. O=C1OCCC1C(O)C1c2ccccc2-c2ccccc21 (stereo unspecified)
3. CCC1CN2CCC1CC2 (stereo unspecified)

1: > 100 µM; 2: > 100 µM; 3: > 100 µM

Parameter requested: TGI. Apply to each item below.
1. CSC1=NC(C(N)=O)C(N)N1C (stereo unspecified)
2. O=C1c2ccccc2C(=O)c2c(NCCNCCO)ccc(O)c21
3. CCSC1(SCC)CC(Cc2ccc(OC)cc2)N(C=NC(C)(C)C)C1 (stereo unspecified)
4. N/C(=N\N=C\c1c[nH]c2cc(C(F)(F)F)ccc2c1=O)NO

1. > 100 µM
2. 6.56 µM
3. > 100 µM
4. > 10 µM

---

Answer each item with its documented TGI.
- Tested on: DLD-1 colon
- testMethodNotes: NCI tumour cell line growth inhibition, 48 h

Examples with answers:
[
  {
    "compound": "CCOC(=O)Nc1cc2c(c(N)n1)N=C(c1ccccc1)[C@H](C)N2",
    "measuredValue": "25.1 µM"
  },
  {
    "compound": "COc1ccc(N=Nc2c(-c3ccccc3)nn(C(=O)CC(=O)Nc3cccc(Cl)c3)c2-c2ccccc2)cc1",
    "measuredValue": "> 100 µM"
  },
  {
    "compound": "CCSC1(SCC)CC(Cc2ccc(OC)cc2)N(C=NC(C)(C)C)C1 (stereo unspecified)",
    "measuredValue": "> 100 µM"
  },
  {
    "compound": "O=C(c1ccccc1)c1ccc(OCCOc2ccc(Nc3ccccc3)cc2)cc1",
    "measuredValue": "> 100 µM"
  }
]

Parameter requested: TGI. Apply to each item below.
1. O=C1c2ccccc2C(=O)c2c(NCCNCCO)ccc(O)c21
2. O=C(O)Cc1cccc2c1Oc1ccccc1S2
3. CC(Oc1ccc(OCC2CCCCC2)cc1)C(N)=O (stereo unspecified)
4. Oc1c2c(c3c4c1N=CC=4CCN=3)-c1c(Br)cc(Br)cc1CCN2
5. CC(=O)c1cccc(NC(=O)C(=O)C(C2OC(=O)c3ccccc32)[N+](=O)[O-])c1 (stereo unspecified)
6. O=C(c1cc2ccccc2o1)N(Cc1ccccc1)c1ccccc1
7. CCC1CN2CCC1CC2 (stereo unspecified)

1. 15.6 µM
2. > 100 µM
3. > 100 µM
4. 3.85 µM
5. > 100 µM
6. 56.6 µM
7. > 100 µM

---

Answer each item with its documented TGI.
- System: 786-0 renal
- testMethodNotes: NCI tumour cell line growth inhibition, 48 h

Examples with answers:
[
  {
    "compound": "N/C(=N\\N=C\\c1c[nH]c2cc(C(F)(F)F)ccc2c1=O)NO",
    "TGI": "> 10 µM"
  },
  {
    "compound": "CCN1C(=O)NC(=O)C(C)(N2C(=O)c3c(F)c(F)c(F)c(F)c3C2=O)C1=O (stereo unspecified)",
    "TGI": "17.7 µM"
  },
  {
    "compound": "Cc1cccc(/C=C2\\CCCc3ccccc3C2=O)c1",
    "TGI": "> 100 µM"
  }
]

Parameter requested: TGI. Apply to each item below.
1. CCOC(=O)C1=C(C)OC(=O)[C@@]2(OC)C=C(Cl)[C@@]12C
2. CC(=O)C1=C(C)Cn2c(=O)c3ccccc3c(=O)n2C1
3. C=CC(C)(O)/C=C/C=C(\C)C(CC1OC1(C)C)OC(=O)/C(C)=C\C (stereo unspecified)
4. C[C@]12CCc3nonc3C1CC[C@@H]1C2CC[C@]2(C)NC(=O)CCC12 (stereo partly specified)

1: > 100 µM; 2: > 100 µM; 3: > 100 µM; 4: > 100 µM

Reference for the values: PubChem BioAssay (NCI)
